Experiment: Antiproliferative activity against human HL60 cells assessed as inhibition of cell survival after 72 hrs by MTT assay
Format: functional, cell-based
Settings: HL-60, 72 h
MEASURED_PROPERTY: IC50

// below: answered compounds
SMILES_STRING | IC50
Cc1nnc(-c2ccc(C)c(Nc3nccc(-c4cccnc4)n3)c2)o1 | > 30 µM
Cc1ccc(-c2nnc(-c3ccc(C)c(C(F)(F)F)c3)o2)cc1Nc1nccc(-c2cccnc2)n1 | > 30 µM

Q) // IC50 lookup, key: Cc1ccc(-c2nnc(-c3ccc(F)c(C(F)(F)F)c3)o2)cc1Nc1nccc(-c2cccnc2)n1
A) > 30 µM

Q) // IC50 lookup, key: COc1cc(/C=C/C(=O)CC(=O)/C=C/c2ccc(OCCN3CCN(Cc4ccc(-c5nnc(-c6ccc(C)c(Nc7nccc(-c8cccnc8)n7)c6)o5)cc4)CC3)c(OC)c2)ccc1O
A) > 30 µM

Q) // IC50 lookup, key: Cc1ccc(-c2cn(-c3ccc(N4CCOCC4)cc3)nn2)cc1Nc1nccc(-c2cccnc2)n1
A) > 30 µM

Q) // IC50 lookup, key: COc1ccc(-n2cc(-c3ccc(C)c(Nc4nccc(-c5cccnc5)n4)c3)nn2)cc1
A) > 30 µM

Q) // IC50 lookup, key: Cc1ccc(-c2nnc(-c3cc(C(F)(F)F)cc(C(F)(F)F)c3)o2)cc1Nc1nccc(-c2cccnc2)n1
A) > 30 µM

Q) // IC50 lookup, key: Cc1ccc(-c2nnc(-c3cccnc3)o2)cc1Nc1nccc(-c2cccnc2)n1
A) > 30 µM

Q) // IC50 lookup, key: Cc1ccc(-n2cc(-c3ccc(C)c(C(F)(F)F)c3)nn2)cc1Nc1nccc(-c2cccnc2)n1
A) > 30 µM
